Source of measurements: PubChem BioAssay (NCATS)

- Target desc: Phospholipid hydroperoxide glutathione peroxidase GPX4 (Homo sapiens)
- Experiment summary: Primary qHTS Assay for Inhibitors of Recombinant Selenoprotein Glutathione Peroxidase 4 (GPX4) (AID 1845192); note: nearly all actives have a fitted effect of over 65% in size
- Run parameters: recombinant GPX4, GR-coupled NADPH fluorescence, 15 min; series mostly up to 50 µM
Inconclusive results are not listed. The source made the active and inactive calls. Calls come from the whole dose curve; as a rule, active = well fitted inhibition curve with a large enough effect; inconclusive = small, poorly fitted or top-dose-only effect; inactive = flat fitted curve, though single readings scatter.
Outcomes: YES (active), NO (inactive)

1) N#CC(O[C@@H]1O[C@H](CO[C@@H]2O[C@H](CO)[C@@H](O)[C@H](O)[C@H]2O)[C@@H](O)[C@H](O)[C@H]1O)c1ccccc1 (some centres not stated) :: NO
2) COC(=O)[C@@]12OC[C@]34[C@H]([C@@H](O)[C@@H]1O)[C@@]1(C)CC(=O)C(O)=C(C)[C@@H]1C[C@H]3OC(=O)[C@H](OC(=O)/C=C(\C)C(C)C)[C@@H]24 :: NO
3) CNC(C)CC1CCCC1 (configuration not stated) :: NO
4) CC(=O)O[C@@]12CO[C@@H]1C[C@H](O)[C@@]1(C)C(=O)[C@H](O)C3=C(C)[C@@H](O)C[C@@](O)([C@@H](OC(=O)c4ccccc4)[C@H]21)C3(C)C :: NO
5) CNC(C)[C@@H](O)c1ccc(O)cc1 (some centres not stated) :: NO
6) CC(COc1ccc(Oc2ccccc2)cc1)Oc1ccccn1 (configuration not stated) :: NO
7) CC1(C)CC[C@]2(NC(=O)C(C)(F)F)CC[C@]3(C)[C@H](C(=O)C=C4[C@@]5(C)C=C(C#N)C(=O)C(C)(C)[C@@H]5CC[C@]43C)[C@@H]2C1 :: NO
8) CC(=O)[C@@]1(O)CC[C@H]2[C@@H]3CCC4=CC(=O)CC[C@@H]4[C@H]3CC[C@@]21C :: NO
9) COC[C@H]1OC(=O)c2coc3c2[C@@]1(C)C1=C(C3=O)[C@@H]2CC[C@H](O)[C@@]2(C)C[C@H]1OC(C)=O :: NO
10) CCC(=O)O[C@H]1CC[C@H]2[C@@H]3CC[C@H]4CC(=O)[C@H](C)C[C@]4(C)[C@H]3CC[C@]12C :: NO
11) CC(=O)OC[C@H]1O[C@@H]([S-])[C@H](OC(C)=O)[C@@H](OC(C)=O)[C@@H]1OC(C)=O.CC[PH+](CC)CC.[Au] :: NO
12) CC(Cc1ccc2c(c1)OCO2)NCC(O)c1ccc(O)c(O)c1 (configuration not stated) :: YES
13) C[N+]1(CC2CC2)CC[C@]23c4c5ccc(O)c4O[C@H]2C(=O)CC[C@@]3(O)[C@H]1C5 (some centres not stated) :: NO
14) COC12C(COC(N)=O)C3=C(C(=O)C(C)=C(N)C3=O)N1CC1C2N1C (configuration not stated) :: NO
15) O1[As]2O[As]1O2 :: NO
16) C[C@]12COC(=O)C[C@@H]1CC[C@@H]1[C@@H]2CC[C@@]2(C)[C@H]1CC[C@]2(C)O :: NO
17) O=C(O)CNC(=O)C1C(=O)N(C2CCCCC2)C(=O)N(C2CCCCC2)C1=O :: NO
18) CO[C@@H](COC(N)=O)C1=C(N2CC2)C(=O)C(C)=C(N2CC2)C1=O :: NO
19) CN(C(=O)/C=C/c1ccoc1)[C@@H]1CC[C@@]2(O)[C@H]3Cc4ccc(O)c5c4[C@@]2(CCN3CC2CC2)[C@H]1O5 :: NO
20) O=c1ccc2cc(O[C@@H]3O[C@H](CO)[C@H](O)[C@H](O)[C@H]3O)c(O)cc2o1 :: YES
21) C/C1=C/C[C@@H](/C(C)=C/c2csc(C)n2)OC(=O)C[C@H](O)C(C)(C)C(=O)[C@H](C)[C@@H](O)[C@@H](C)CCC1 :: NO
22) C[C@@H]1CC[C@@]2(OC1)O[C@H]1C[C@H]3[C@@H]4CC=C5C[C@@H](O[C@@H]6O[C@H](CO)[C@@H](O[C@@H]7O[C@@H](C)[C@H](O)[C@@H](O)[C@H]7O)[C@H](O)[C@H]6O[C@@H]6O[C@@H](C)[C@H](O)[C@@H](O)[C@H]6O)CC[C@]5(C)[C@H]4CC[C@]3(C)[C@H]1[C@@H]2C :: NO
23) CC1(C)C(=O)N(c2ccc(C#N)c(C(F)(F)F)c2)C(=S)N1Cc1ccc(-c2cn[nH]n2)cc1 :: NO
24) C=C/C=C/CC1=C(C)[C@H](OC(=O)[C@H]2[C@H](/C=C(\C)C(=O)OC)C2(C)C)CC1=O :: NO
25) CCN1C[C@@]2(COC)C3[C@@H](OC)C4[C@@H]1[C@@]3(C1C[C@]3(O)[C@H](OC(=O)c5ccccc5)C1[C@]4(OC(C)=O)[C@@H](O)[C@@H]3OC)[C@@H](OC)C[C@H]2O (some centres not stated) :: NO
26) CNC(C)C(O)c1ccccc1 (configuration not stated) :: NO
27) CC(C)(O)/C=C\C(=O)[C@](C)(O)[C@H]1[C@H](O)C[C@]2(C)[C@@H]3CC=C4[C@@H](C=C(O)C(=O)C4(C)C)[C@]3(C)C(=O)C[C@@]12C :: NO
28) Cn1c(CCCCCCC(=O)NO)nc2cc(N(CCCl)CCCl)ccc21 :: NO
29) C=CCCCCCCCCC(=O)O[C@H]1CC[C@H]2[C@@H]3CCC4=CC(=O)C=C[C@]4(C)[C@H]3CC[C@]12C :: NO
30) O=C(O)C1=CCCN(CCOC(c2ccc(C(F)(F)F)cc2)c2ccc(C(F)(F)F)cc2)C1 :: NO
31) CCCCOc1ccc(C[N+]2(C)C3CCC2CC(OC(=O)[C@H](CO)c2ccccc2)C3)cc1 (some centres not stated) :: NO
32) C=C(C)[C@@H]1CCC(C)=C[C@H]1c1c(O)cc(CCCCC)cc1O :: YES

----------
- Experiment summary: Cell Viability - Renal Proximal Tubule (AID 545);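 note: cells exposed to compound for 40 hours; 0% = DMSO only and -100% = 100 µM tamoxifen; nearly all actives have a fitted effect of over 40% in size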
- Run parameters: renal proximal tubule cells viability; at 91.7 µM (top of the series), primary cells of rat origin unless noted
Results filed as inconclusive are left out. Calls of active or inactive are those of the source. Calls follow the shape of the dose curve; as a rule, active = well fitted cell-killing curve with a large enough effect; inconclusive = small, poorly fitted or top-dose-only effect; inactive = flat fitted curve, though single readings scatter.
Endpoint: activity change, negative = cytotoxicity

1) O=C(Cl)/C=C/C(=O)Cl :: 2.59% (inactive)
2) Cc1ccc2ccccc2c1 :: -15.4% (inactive)
3) C=CC(=O)OCC :: 0.0849% (inactive)
4) CCCOC(=O)c1ccccc1C(=O)OCCC :: -1.75% (inactive)
5) ClC(Cl)=C(Cl)C(Cl)=C(Cl)Cl :: -4.45% (inactive)
6) c1nc[nH]n1 :: -1.05% (inactive)
7) O=[N+]([O-])c1ccc(Cl)c(Cl)c1 :: -5.41% [at 91.7 µM] (inactive)
8) ClC1=C(Cl)C2(Cl)C3C4CC(C5OC45)C3C1(Cl)C2(Cl)Cl (stereo not given) :: -5.71% [at 91.7 µM] (inactive)
9) C1CCC2CCCCC2C1 (stereo not given) :: -9.71% (inactive)
10) Clc1cc(Cl)c(-c2cc(Cl)c(Cl)cc2Cl)cc1Cl :: -5.09% [at 91.7 µM] (inactive)
11) Cc1cccc([N+](=O)[O-])c1 :: -7.28% (inactive)
12) OCC1CO1 (stereo not given) :: 4.62% (inactive)
13) O=NN(CCO)CCO :: -10.4% (inactive)
14) ClC1=C(Cl)C2(Cl)C3C4C=CC(C4)C3C1(Cl)C2(Cl)Cl (stereo not given) :: 4.94% [at 91.7 µM] (inactive)
15) CC(Cl)Cl :: -11.4% (inactive)

----------
- Experiment summary: Cell Viability - LYMP2-024 (AID 988);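 note: cells exposed to compound for 24 hr at 37 °C; nearly all actives have a fitted effect of over 60% in size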
- Run parameters: LYMP2-024 lymphoblastoid cell viability; series mostly up to 92.2 µM
Records with an inconclusive call do not appear. Active and inactive are the calls of the source. Calls follow the shape of the dose curve; as a rule, active = well fitted cell-killing curve with a large enough effect; inconclusive = small, poorly fitted or top-dose-only effect; inactive = flat fitted curve, though single readings scatter.
Outcomes: True (active), False (inactive)

1. OCC(Br)CBr (centres undefined) :: False
2. O=[N+]([O-])c1cccc2ccccc12 :: False
3. Cc1ccc2ccccc2c1 :: False
4. C=CC(=O)OCC :: False
5. C=CC(N)=O :: False
6. Nc1ccc(Br)cc1 :: False
7. CCOP(=S)(OCC)SCSC(C)(C)C :: False
8. Brc1ccc(Oc2cc(Br)c(Br)cc2Br)c(Br)c1 :: False
9. O=C(O)COc1ccc(Cl)cc1Cl :: False
10. CCCOC(=O)c1ccccc1C(=O)OCCC :: False
11. Cc1cccc([N+](=O)[O-])c1 :: False
12. ClC1=C(Cl)C2(Cl)C3C4CC(C5OC45)C3C1(Cl)C2(Cl)Cl (centres undefined) :: True
13. Clc1nc(Cl)nc(Nc2ccccc2Cl)n1 :: False
14. CCCCCCCCCc1ccc(O)cc1 :: False

----------
- Experiment summary: qHTS for Hypoxia signaling pathway (HIF-1) antagonists against the NCATS CANVASS Library (AID 1347374); note: nearly all actives have a fitted effect of over 60% in size
- Run parameters: HRE-bla ME-180 cells, HIF-1 beta-lactamase reporter, CoCl2; series mostly up to 38.3 µM
Records with an inconclusive call do not appear. Calls of active or inactive are those of the source. The call rests on the fitted dose curve; in most records, active means well fitted inhibition curve with a large enough effect; inconclusive means small, poorly fitted or top-dose-only effect; inactive means no such curve, though single readings can be large or run the other way. Starred links: 1 amine or outer side, 2 acyl side, 3 side chain; linkers in the order of their positions; H or OH if unused. Positions of bridges follow the written chain, without caps; N, C: chain ends. Non-standard residues stand in square brackets, D forms with d. Residues, ends and D or L forms follow the SMILES beside them. ξ: configuration not given here. *: point of attachment. X3 = C[C@@H](Oc1ccc([C@H](N[*:1])C(=O)[*:2])cc1)[C@]1(/C=C\C(=O)[*:3])CO1; d(aIle) = CC[C@H](C)[C@@H](N)C(=O)O; X2 = CC(C)[C@@H](O)C(C)C(=O)*; ξNMeF = CNC(Cc1ccccc1)C(=O)O; ξT = CC(O)C(N)C(=O)O; ξS = NC(CO)C(=O)O
Outcomes: true for active, false for inactive

1. C=C[C@]12C=CCN3CC[C@@]4(c5ccccc5NC(=O)[C@@H]4C1)[C@@H]32 :: false
2. C=CC(C)(C)[C@@]12C[C@H]3C(=O)N/C(=C\c4cnc[nH]4)C(=O)N3[C@@H]1Nc1ccccc12 :: false
3. CC[C@H](C)[C@H]1NC(=O)[C@@H](NC(=O)C(C)[C@H](O)C(C)C)[C@@H](C)OC(=O)C2COC(=O)CNC(=O)/C=C\[C@]3(CO3)[C@@H](C)Oc3ccc(cc3)[C@H](NC1=O)C(=O)N(C)C(Cc1ccccc1)C(=O)NC(C(C)O)C(=O)N2 (some centres undefined) (X2-T[d(aIle)][X3][ξNMeF][ξT][ξS]; ester 1-C; linker 3-6 via G) :: false
4. C/C(=C\[C@H](C)C(=O)C[C@H](O)CC1CC(=O)NC(=O)C1)[C@@H]1OC(=O)/C=C/CC/C=C/C=C/[C@@H]1C :: true
